system: UACC-257 melanoma; test: NCI-60 one-dose screen, 48 h; settings: 10 µM
About 83,000 compounds went through this panel and 20% of them were active in at least one assay; those are over-represented in the sample as a whole. The source made the active and inactive calls. Rule for the calls: active = growth percent below 10; inactive = the rest.
Classes used: true (1) (active), false (0) (inactive)

| Compound | Category |
| --- | --- |
| COC(=O)c1c(C(=O)OC)c2n(CC(=O)Nc3cccc4cccnc34)c3ccccc3n2c1C(=O)c1ccc(C)cc1 | false (0) |
| CCN(CC)CCCC(C)NCC(=O)NC(c1ccc2c(c1)OCO2)c1cc(Cl)c2cccnc2c1O (stereo not drawn) | false (0) |
| O=C(NCCCNc1cc(-c2cn(-c3ccccc3)nc2-c2cccc(O)c2)ccn1)Nc1cccc(C(F)(F)F)c1 | false (0) |
| CCCCCCNC(=O)Oc1ccc(/C(=C(/C)c2ccc(OC)cc2)c2ccc(OCCN3CCCC3)cc2)cc1 | true (1) |
| C=CCn1c(SCC(=O)Nc2cccc(C(=O)/C=C/c3ccc(OC)c(OC)c3)c2)nc2ccccc2c1=O | false (0) |
| Cc1ccc(-n2cc(/C=C/C(=O)c3ccc(S(C)(=O)=O)cc3)c(-c3ccc(S(C)(=O)=O)cc3)n2)cc1 | false (0) |
| C#C[C@]1(O)CC[C@H]2[C@@H]3CC=C4c5sc(-c6ccccn6)nc5CC[C@]4(C)[C@H]3CC[C@@]21C | false (0) |
| Nc1n[nH]c2cccc(C#Cc3cccc(NC(=O)c4cccc(OC(F)(F)F)c4)c3)c12 | false (0) |
